Biological target: CSNK1A1 (Homo sapiens, UniProt P48729)
Sequence (P48729 whole entry): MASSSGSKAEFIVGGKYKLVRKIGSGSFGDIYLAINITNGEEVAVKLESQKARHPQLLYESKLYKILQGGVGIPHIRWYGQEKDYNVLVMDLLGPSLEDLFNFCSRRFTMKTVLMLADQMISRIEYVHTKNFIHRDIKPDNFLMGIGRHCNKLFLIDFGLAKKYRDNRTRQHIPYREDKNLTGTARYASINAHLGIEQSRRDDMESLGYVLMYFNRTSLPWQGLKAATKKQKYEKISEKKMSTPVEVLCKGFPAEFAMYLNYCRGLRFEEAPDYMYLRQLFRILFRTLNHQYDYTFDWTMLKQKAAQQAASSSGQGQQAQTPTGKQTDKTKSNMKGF
Assay: biochemical
Design: species or system HEK293/K-562/placenta mixed human extract; Kinobeads chemoproteomic competition binding, quantified by TMT LC-MS/MS, dose response up to 20 uM
pIC50: −log10 of the molar value.
Experimental Endpoint: pIC50

Which pIC50 value is on record for COc1ccccc1-c1n[nH]c2nc(N[C@H]3CC[C@H](NS(=O)(=O)CCC(F)(F)F)CC3)nc(OC)c12 ?
≤ 4.70

###

Biological target: IKBKE (Homo sapiens, UniProt Q14164)
Sequence (Q14164 1-716): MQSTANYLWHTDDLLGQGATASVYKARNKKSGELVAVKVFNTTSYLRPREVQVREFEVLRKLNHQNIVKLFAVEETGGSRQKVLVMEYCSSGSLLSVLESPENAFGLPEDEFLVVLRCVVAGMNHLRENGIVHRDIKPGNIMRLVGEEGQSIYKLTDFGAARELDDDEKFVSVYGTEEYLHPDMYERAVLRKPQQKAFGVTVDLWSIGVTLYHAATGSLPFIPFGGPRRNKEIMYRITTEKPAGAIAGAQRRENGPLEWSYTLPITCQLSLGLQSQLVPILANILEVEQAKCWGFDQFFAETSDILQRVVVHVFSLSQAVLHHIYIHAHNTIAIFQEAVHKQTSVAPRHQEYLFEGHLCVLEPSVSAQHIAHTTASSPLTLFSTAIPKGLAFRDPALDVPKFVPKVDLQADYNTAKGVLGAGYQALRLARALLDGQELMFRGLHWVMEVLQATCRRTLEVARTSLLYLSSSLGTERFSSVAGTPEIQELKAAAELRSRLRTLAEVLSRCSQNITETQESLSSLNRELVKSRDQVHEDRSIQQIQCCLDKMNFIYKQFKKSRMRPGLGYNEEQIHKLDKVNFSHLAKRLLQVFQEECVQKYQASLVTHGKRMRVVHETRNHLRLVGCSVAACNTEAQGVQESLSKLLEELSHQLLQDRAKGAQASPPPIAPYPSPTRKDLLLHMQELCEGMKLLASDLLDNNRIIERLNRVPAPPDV
Assay: biochemical
Design: species or system HEK293/K-562/placenta mixed human extract; Kinobeads chemoproteomic competition binding, quantified by TMT LC-MS/MS, dose response up to 20 uM
Experimental Endpoint: IC50

Which measured IC50 value corresponds to COc1ccccc1-c1n[nH]c2nc(N[C@H]3CC[C@H](NS(=O)(=O)CCC(F)(F)F)CC3)nc(OC)c12 [compound 31] ?
≥ 20 µM

###

Target: TNK2 (Homo sapiens, UniProt Q07912)
Sequence (Q07912 whole entry): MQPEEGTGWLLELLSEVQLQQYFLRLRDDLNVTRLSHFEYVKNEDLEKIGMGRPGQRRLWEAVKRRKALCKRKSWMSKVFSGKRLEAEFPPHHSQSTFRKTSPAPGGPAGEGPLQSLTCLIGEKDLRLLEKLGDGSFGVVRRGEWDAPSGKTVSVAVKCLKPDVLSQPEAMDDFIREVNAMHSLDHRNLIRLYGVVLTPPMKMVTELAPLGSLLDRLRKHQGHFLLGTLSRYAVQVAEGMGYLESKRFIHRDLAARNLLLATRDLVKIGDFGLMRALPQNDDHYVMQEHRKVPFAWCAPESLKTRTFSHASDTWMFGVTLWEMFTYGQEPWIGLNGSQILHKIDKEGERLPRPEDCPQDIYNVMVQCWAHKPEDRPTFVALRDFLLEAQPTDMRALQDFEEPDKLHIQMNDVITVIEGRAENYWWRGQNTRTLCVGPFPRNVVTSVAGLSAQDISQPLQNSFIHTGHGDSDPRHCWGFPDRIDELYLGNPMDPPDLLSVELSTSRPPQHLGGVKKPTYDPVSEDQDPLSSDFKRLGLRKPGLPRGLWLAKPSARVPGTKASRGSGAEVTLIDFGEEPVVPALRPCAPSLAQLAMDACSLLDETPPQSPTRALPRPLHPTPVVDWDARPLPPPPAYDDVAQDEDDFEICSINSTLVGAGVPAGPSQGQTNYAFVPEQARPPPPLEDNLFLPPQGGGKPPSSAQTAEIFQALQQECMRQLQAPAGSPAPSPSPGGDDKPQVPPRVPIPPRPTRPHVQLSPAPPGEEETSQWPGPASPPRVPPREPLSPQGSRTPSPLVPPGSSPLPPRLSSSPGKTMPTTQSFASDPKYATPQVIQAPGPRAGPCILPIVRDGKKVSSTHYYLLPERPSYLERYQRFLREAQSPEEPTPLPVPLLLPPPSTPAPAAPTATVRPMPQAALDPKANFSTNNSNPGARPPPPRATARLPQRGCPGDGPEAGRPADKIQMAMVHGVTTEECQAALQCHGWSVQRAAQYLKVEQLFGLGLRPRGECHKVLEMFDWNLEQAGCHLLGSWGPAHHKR
Experiment: biochemical
Design: species or system HEK293/K-562/placenta mixed human extract; Kinobeads chemoproteomic competition binding, quantified by TMT LC-MS/MS, dose response up to 20 uM
pIC50: −log10 of the molar value.
Experimental Endpoint: pIC50

Which pIC50 reading was recorded for the compound COc1nc(N[C@H]2CC[C@H](NS(=O)(=O)CC(C)C)CC2)nc2[nH]nc(N3CCOC[C@H]3C)c12 [compound 39] ?
≤ 4.70

###

Target: RPS6KA4 (Homo sapiens)
Sequence (O75676 whole entry): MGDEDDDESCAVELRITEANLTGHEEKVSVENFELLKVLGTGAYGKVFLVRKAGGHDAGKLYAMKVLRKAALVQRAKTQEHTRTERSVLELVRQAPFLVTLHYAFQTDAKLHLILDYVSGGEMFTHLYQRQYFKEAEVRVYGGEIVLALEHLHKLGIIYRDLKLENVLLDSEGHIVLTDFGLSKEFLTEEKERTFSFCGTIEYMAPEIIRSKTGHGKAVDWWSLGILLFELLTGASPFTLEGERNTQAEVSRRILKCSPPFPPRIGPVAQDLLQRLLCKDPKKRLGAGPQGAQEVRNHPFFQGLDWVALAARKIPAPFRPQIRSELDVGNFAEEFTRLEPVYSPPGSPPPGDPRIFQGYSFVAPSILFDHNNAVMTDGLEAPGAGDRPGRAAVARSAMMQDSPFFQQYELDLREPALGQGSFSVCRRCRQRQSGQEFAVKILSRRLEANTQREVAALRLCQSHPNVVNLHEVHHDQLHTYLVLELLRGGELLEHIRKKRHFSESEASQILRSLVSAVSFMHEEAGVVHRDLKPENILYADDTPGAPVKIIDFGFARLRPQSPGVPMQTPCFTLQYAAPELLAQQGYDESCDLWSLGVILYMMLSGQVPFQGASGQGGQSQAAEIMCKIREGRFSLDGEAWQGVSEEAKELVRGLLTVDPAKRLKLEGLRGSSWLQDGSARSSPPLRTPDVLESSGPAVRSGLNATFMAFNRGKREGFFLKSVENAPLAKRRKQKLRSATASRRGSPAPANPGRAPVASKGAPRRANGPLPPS
Assay: biochemical
Set-up: species or system HEK293/K-562/placenta mixed human extract; Kinobeads chemoproteomic competition binding, quantified by TMT LC-MS/MS, dose response up to 20 uM
Experimental Endpoint: IC50

Consider the molecule COc1ccccc1-c1n[nH]c2nc(N[C@H]3CC[C@H](NS(=O)(=O)CCC(F)(F)F)CC3)nc(OC)c12 [compound 31] and give its measured IC50.
≥ 20 µM
